# Kd annotations
Target: T1, recombinant purified human IL-12 p70 (human, UniProt P29459 23-219)
T1 construct: Disulfide-linked heterodimer of p35 and p40; also called hIL-12; Hu IL-12
T1 sequence 1: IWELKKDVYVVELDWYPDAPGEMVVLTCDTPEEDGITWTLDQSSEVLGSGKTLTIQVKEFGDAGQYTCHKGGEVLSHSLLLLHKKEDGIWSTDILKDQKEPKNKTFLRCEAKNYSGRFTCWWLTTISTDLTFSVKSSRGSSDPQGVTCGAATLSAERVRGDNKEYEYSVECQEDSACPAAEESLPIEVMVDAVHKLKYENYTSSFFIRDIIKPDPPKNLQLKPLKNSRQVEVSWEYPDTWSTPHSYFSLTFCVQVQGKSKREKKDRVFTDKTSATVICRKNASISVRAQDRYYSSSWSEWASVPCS
T1 sequence 2: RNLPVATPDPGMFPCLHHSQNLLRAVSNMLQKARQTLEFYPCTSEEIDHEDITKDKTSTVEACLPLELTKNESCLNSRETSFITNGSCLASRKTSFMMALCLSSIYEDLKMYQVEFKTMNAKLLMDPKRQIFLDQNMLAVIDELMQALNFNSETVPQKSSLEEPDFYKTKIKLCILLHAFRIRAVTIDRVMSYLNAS
Test: SPR (Biacore), mAb captured on anti-mouse IgG Fc, IL-12 p70 as analyte
measured_property: Kd (nM)

[[record]]
binder = "murine anti-human IL-12p40 monoclonal antibody 5E8 (antibody, V domains shown, Murine mAb) VH: QIQLVQSGPELKKPGETVKISCKASGYSFTDYSMHWVKQAPGKGLKWMDWINTETGEPTYADDFKGRFAFSLETSASTAYLQINNLKNEDTATYFCSRRRYRAFDYWGQGTTLTVSS VL: SIVMTQSPKFLLVSAGDRVTITCKASQSVSNDVAWYQQKLGQSPKLLIYYASNRYTGVPDRFTGSGYGTDFTFTINTVQAEDLAVYFCQQDYTSPYTFGGGTKLEIQR"
unit_text = "nM"
result = 4

[[record]]
binder = "murine anti-human IL-12p40 monoclonal antibody 1D8 (antibody, V domains shown, Murine mAb) VH: QVQLQQSGAELMKPGASVKISCKATGYTFSSYWIEWVKQRPGHGLEWIGDILPGSGSTNYNEKFKDKATFTADTSFNTAYMQLSSLTSEDSAVYYCATRRFRGLDYWGQGTTLTVSS VL: SIVMTQTPKFLLVSAGDRVTITCKASQSVSNDVAWYQQKSGQSPKLLIYYASNRYTGVPDRFTGSGYGTDFTFTISTVQPEDLAVYFCQQDYTSPFTFGSGTKLEIKR"
unit_text = "nM"
result = 0.044

[[record]]
binder = "murine anti-human IL-12p40 monoclonal antibody 4B4 (antibody, V domains shown, Murine mAb) VH: QVTLKESGPGILKPSQTLSLTCSLSGFSLSTSGMGVSWIRQPSGKGLEWLAHIWWDGDSYSNPSLRSRLTISRDTSRNQVFLRIATVDTADTATYYCARRTRVNYAMDYWGQGTSVTVSS VL: SVVMTQTPKFLLVSAGDRVTMTCKASQSVSNDVAWFQQKPGQSPKLLIYYASNRYTGVPDRFTGSGYGTDFTFTISTVQAEDLAVYFCQQDYNSPWTFGGGTKLEIKR"
unit_text = "nM"
result = 0.1

[[record]]
binder = "murine anti-human IL-12p40 monoclonal antibody 1A6 (antibody, V domains shown, Murine mAb) VH: QVTLKESGPGILKPSQTLSLTCSFSGFSLSTSGMGVSWIRQPSGKGLEWLAHIWWDGDNYYNPSLKSQLTISKDTSRNQVFLRIATVDTADTATYYCARRTRVNYAMDYWGQGTSVTVSS VL: SVVMTQTPKFLLVSAGDRVTITCKASQSVSNDVAWFQQKPGQSPKLLIYYASNRYTGVPDRFTGSGYGTDFTFTISTVQAEDLAVYFCQQDYNSPWTFGGGTKLEIKR"
unit_text = "nM"
result = 0.23

[[record]]
binder = "murine anti-human IL-12p40 monoclonal antibody 3G7 (antibody, V domains shown, Murine mAb) VH: QVQLQQSGAELMKPGASVKISCKATGYTFNDYWIEWVKQRPGHGLEWIGGFSHGSGSTNYNEKFKGKATFTADSSSNTAYMQLSSLTSEDSAVYYCARRRFRGMDYWGQGTSVTVSS VL: SIVMTQTPKFLLVSAGDRVTITCKASQSVSNDVAWYQQKPGQSPKLLIYYASNRYTGVPDRFTGSGYGTDFTFTITTVQAEDLAVYFCQQDYSSPWSFGGGTKLEIKR"
unit_text = "nM"
result = 0.047

[[record]]
binder = "murine anti-human IL-12p40 monoclonal antibody 8E1 (antibody, V domains shown, Murine mAb; also called biotinylated 8E1) VH: EVKLVESGGGLVQPGGSRKLSCAASGFTFSDYGMVWVRQAPGKGLEWVASISSGSSNIYYADTVKGRFTISRDDPNNTLFLQMRSLRSEDTAMYYCARNPYWGQGTTLTVSS VL: DIVMTQSQKFMSTSVGDRVSVTCKASQNVGTNVAWYQQKPGQSPKGLIYSASHRYSGVPDRFAGSGSGTDFTLTISNVQSEDLAEYFCQQYNSYPLTFGGGTKLELKR"
unit_text = "nM"
result = 0.074

[[record]]
binder = "murine anti-human IL-12p40 monoclonal antibody 7G3 (antibody, V domains shown, Murine mAb) VH: EVQLQQSGAEFVRSGASVKLSCTASGLNIKDYYIHWVKQRPEQVLDWIGWIDPENGYSEYAPRFQDKATMTADTSSNTAYLHLSSLTSEDTAVYYCNPGELARYFDYWGQGTTLTVSS VL: DIVLSQSPATLSVTPGDSVSLSCRASQSISKNLHWYQQKSHESPRLLIKYTSQSISGIPSRFSGSGSGTDFTLSINSVETEDFGMYFCQQSISWPLTFGAGTKLELKR"
unit_text = "nM"
result = 0.27

[[record]]
binder = "murine anti-human IL-12p40 monoclonal antibody 1H6 (antibody, V domains shown, Murine mAb) VH: EVKLVESGGGLVQPGGSRKLSCAASGFTFSDYGMVWVRQAPGKGLEWVAYISSGSSTIHYADTMKGRFTISRDNPKNTLFLQMSSLRSEDTAMYYCARRHYYAMDYWGQGTSVTVSS VL: SFVMTQTPKFLLVSAGDRVTITCKASQSVSNDVAWYQQKPGQSPKLLIYYASNRYTGVPDRFTGTGYGTDFTFTISTVQAEDLAVYFCQQDYTSPFTFGSGTKLEIKR"
unit_text = "nM"
result = 0.25

[[record]]
binder = "murine anti-human IL-12p40 monoclonal antibody 1D4 (antibody, V domains shown, Murine mAb purified from hybridoma supernatant) VH: QVTLKESGPGILQPSQTLSLTCSFSGFSLRKSVMGVSWIRQPSGKGLEWLAHIYWDDDKYYNPSLKSRLTISKDPSRNQVFLKITSVDTADAATYYCTRRGIRSAMDYWGQGTSVTVSS VL: SVVMTQTPKFLLVSAGDRVTITCKASQSVSNDVAWYQQKPGQSPKLLIYYASNRYTGVPDRFTGSGYGTDFTFIISTVRAEDLAVYFCQQDYNSPWTFGGGTKLEIKR"
unit_text = "nM"
result = 0.12

